# ASSAY_TEXT: Metabolic stability in mouse plasma assessed as compound degradation at 37 degC measured after 10 hrs
# Format: ADME, cell-free
# SETUP_CONDITIONS: read-out: Drug degradation
PROPERTY_MEASURED: metabolised at 10 h (%)
State just the number; it will be interpreted in %.

Briefly, metabolised at 10 h measured for CC(=O)O[C@H]1C(=O)[C@@]2(C)[C@H]([C@H](OC(=O)c3ccccc3)[C@]3(O)C[C@H](OC(=O)[C@H](OC(=O)OCCSSCC(=O)N[C@H](CC(=O)NCCN4CCOCC4)C(=O)NCCN4CCOCC4)[C@@H](NC(=O)c4ccccc4)c4ccccc4)C(C)=C1C3(C)C)[C@]1(OC(C)=O)CO[C@@H]1C[C@@H]2O : 100

----------
# ASSAY_TEXT: Toxicity in mouse
# Format: organism-based
# SETUP_CONDITIONS: in vivo
PROPERTY_MEASURED: MTD (mg/kg)
State just the number; it will be interpreted in mg/kg.

Briefly, MTD measured for CC(=O)O[C@H]1C(=O)[C@@]2(C)[C@H]([C@H](OC(=O)c3ccccc3)[C@]3(O)C[C@H](OC(=O)[C@H](O)[C@@H](NC(=O)c4ccccc4)c4ccccc4)C(C)=C1C3(C)C)[C@]1(OC(C)=O)CO[C@@H]1C[C@@H]2O : 30

----------
# ASSAY_TEXT: Ratio of aqueous solubility of compound to aqueous solubility of paclitaxel
# Type: physicochemical
# SETUP_CONDITIONS: buffer
Listing: Ratio of selected molecules
Give the figure by itself; no unit, no explanation.

Observe how each entry below is paired with its result.
{"SMILES_STRUCTURE": "CC(=O)O[C@H]1C(=O)[C@@]2(C)[C@H]([C@H](OC(=O)c3ccccc3)[C@]3(O)C[C@H](OC(=O)[C@H](OC(=O)OCCSSCC(=O)N[C@H](CC(=O)NCCN4CCOCC4)C(=O)NCCN4CCOCC4)[C@@H](NC(=O)c4ccccc4)c4ccccc4)C(C)=C1C3(C)C)[C@]1(OC(C)=O)CO[C@@H]1C[C@@H]2O", "RECORDED_RESULT": 20000}
{"SMILES_STRUCTURE": "CC(=O)O[C@H]1C(=O)[C@@]2(C)[C@H]([C@H](OC(=O)c3ccccc3)[C@]3(O)C[C@H](OC(=O)[C@H](OC(=O)NCCN4CCOCC4)[C@@H](NC(=O)c4ccccc4)c4ccccc4)C(C)=C1C3(C)C)[C@]1(OC(C)=O)CO[C@@H]1C[C@@H]2O", "RECORDED_RESULT": 2000}

Briefly, Ratio measured for CC(=O)O[C@H]1C(=O)[C@@]2(C)[C@H]([C@H](OC(=O)c3ccccc3)[C@]3(O)C[C@H](OC(=O)[C@H](OC(=O)CN4CCOCC4)[C@@H](NC(=O)c4ccccc4)c4ccccc4)C(C)=C1C3(C)C)[C@]1(OC(C)=O)CO[C@@H]1C[C@@H]2O : 400

Briefly, Ratio measured for CC(=O)O[C@H]1C(=O)[C@@]2(C)[C@H]([C@H](OC(=O)c3ccccc3)[C@]3(O)C[C@H](OC(=O)[C@H](OC(=O)CCC(=O)NCCN4CCOCC4)[C@@H](NC(=O)c4ccccc4)c4ccccc4)C(C)=C1C3(C)C)[C@]1(OC(C)=O)CO[C@@H]1C[C@@H]2O : 2000

----------
# ASSAY_TEXT: Aqueous solubility of the compound
# Assay type: physicochemical
PROPERTY_MEASURED: solubility (µg/mL)
State just the number; it will be interpreted in µg/mL.

Observe how each entry below is paired with its result.
{"SMILES_STRUCTURE": "CC(=O)O[C@H]1C(=O)[C@@]2(C)[C@H]([C@H](OC(=O)c3ccccc3)[C@]3(O)C[C@H](OC(=O)[C@H](OC(=O)CCC(=O)NCCN4CCOCC4)[C@@H](NC(=O)c4ccccc4)c4ccccc4)C(C)=C1C3(C)C)[C@]1(OC(C)=O)CO[C@@H]1C[C@@H]2O", "PROPERTY_MEASURED": "solubility", "RECORDED_RESULT": 500}
{"SMILES_STRUCTURE": "CC(=O)O[C@H]1C(=O)[C@@]2(C)[C@H]([C@H](OC(=O)c3ccccc3)[C@]3(O)C[C@H](OC(=O)[C@H](OC(=O)NCCN4CCOCC4)[C@@H](NC(=O)c4ccccc4)c4ccccc4)C(C)=C1C3(C)C)[C@]1(OC(C)=O)CO[C@@H]1C[C@@H]2O", "PROPERTY_MEASURED": "solubility", "RECORDED_RESULT": 500}

Briefly, solubility measured for CC(=O)O[C@H]1C(=O)[C@@]2(C)[C@H]([C@H](OC(=O)c3ccccc3)[C@]3(O)C[C@H](OC(=O)[C@H](OC(=O)CN4CCOCC4)[C@@H](NC(=O)c4ccccc4)c4ccccc4)C(C)=C1C3(C)C)[C@]1(OC(C)=O)CO[C@@H]1C[C@@H]2O : 100

Briefly, solubility measured for CC(=O)O[C@H]1C(=O)[C@@]2(C)[C@H]([C@H](OC(=O)c3ccccc3)[C@]3(O)C[C@H](OC(=O)[C@H](OC(=O)OCCSSCC(=O)N[C@H](CC(=O)NCCN4CCOCC4)C(=O)NCCN4CCOCC4)[C@@H](NC(=O)c4ccccc4)c4ccccc4)C(C)=C1C3(C)C)[C@]1(OC(C)=O)CO[C@@H]1C[C@@H]2O : 5000
